pKi: −log10 of the molar value.
Before we begin, note that these pKi values for Prostaglandin E2 receptor EP3 subtype (Homo sapiens) originate from several publications.

> print(dat)
                                  structure                              study.system  recorded.result
1  O=C(NS(=O)(=O)Cc1ccccc1)c1cccc(C[C@@H]2CCCC=C2c2nc(-c3ccccc3)c(-c3ccccc3)o2)c1  Prostaglandin E2 receptor EP3 subtype (Homo sapiens)           < 5.52
2  CCCCc1nn(-c2ccccc2C(F)(F)F)c(=O)n1Cc1ccc(-c2ccccc2S(=O)(=O)NC(=O)c2cccs2)cc1  Prostaglandin E2 receptor EP3 subtype (Homo sapiens)             5.15
3  Cc1sc(C)c(C(=O)N[C@@H](C)c2ccc(C(=O)O)cc2)c1Cc1cccc(C(F)(F)F)c1  Prostaglandin E2 receptor EP3 subtype (Homo sapiens)           < 5.46
4  O=C(O)c1ccc(C2(NC(=O)c3cc(Cl)cc4ccn(Cc5ccc(C(F)(F)F)cc5)c34)CC2)cc1  Prostaglandin E2 receptor EP3 subtype (Homo sapiens)           ≤ 5.89

What measured pKi goes with `O=C(O)COc1cccc(CN(Cc2ccc(-n3cccn3)cc2)S(=O)(=O)c2cccnc2)c1` ?
< 5.49
